Hey, just so you know, these numbers are from the supplement of paper PMC10598134.

Can you tell me collision cross section for the items I'm about to list?
assay: collision cross section of unmodified peptide (TIMS, N2, iRT-aligned); higher = larger / more extended gas-phase ion; details: charge state: 3
Answers are plain numbers, in Å².

Example results:
[
  {
    "residue-codes": "FIHQQPQSSSPVYGSSAK",
    "collision cross section (Å²)": 514.9
  },
  {
    "residue-codes": "ANEKTESSSAQQVAVSR",
    "collision cross section (Å²)": 497.75
  },
  {
    "residue-codes": "GATVTRGVPPPPTVR",
    "collision cross section (Å²)": 511.54
  },
  {
    "residue-codes": "LSFGLEDEPLETATK",
    "collision cross section (Å²)": 496.99
  },
  {
    "residue-codes": "ELANFDPSRPGPPSGR",
    "collision cross section (Å²)": 494.4
  },
  {
    "residue-codes": "HLRGHGPQPPLR",
    "collision cross section (Å²)": 492.83
  },
  {
    "residue-codes": "ITESVAETAQTIKK",
    "collision cross section (Å²)": 508.11
  },
  {
    "residue-codes": "FLQEFYQDDELGKK",
    "collision cross section (Å²)": 492.87
  },
  {
    "residue-codes": "LGSASSSHGSIQESHK",
    "collision cross section (Å²)": 509.47
  },
  {
    "residue-codes": "DASTLQSQKAEGTGDAK",
    "collision cross section (Å²)": 495.18
  }
]

Report collision cross section for every entry below.
1. VEPGSLESSPGLGRGR
2. KDYQPGITFIVVQK
3. IQTVPASHLQQGTASGSSK

1: 497.45; 2: 508.05; 3: 490.25
